Biological target: HMG-CoA reductase (Homo sapiens, UniProt P04035)
Construct: endogenous in cells; host or cells: HepG2 (Korea Cell Line Bank)
Sequence (P04035 1-888): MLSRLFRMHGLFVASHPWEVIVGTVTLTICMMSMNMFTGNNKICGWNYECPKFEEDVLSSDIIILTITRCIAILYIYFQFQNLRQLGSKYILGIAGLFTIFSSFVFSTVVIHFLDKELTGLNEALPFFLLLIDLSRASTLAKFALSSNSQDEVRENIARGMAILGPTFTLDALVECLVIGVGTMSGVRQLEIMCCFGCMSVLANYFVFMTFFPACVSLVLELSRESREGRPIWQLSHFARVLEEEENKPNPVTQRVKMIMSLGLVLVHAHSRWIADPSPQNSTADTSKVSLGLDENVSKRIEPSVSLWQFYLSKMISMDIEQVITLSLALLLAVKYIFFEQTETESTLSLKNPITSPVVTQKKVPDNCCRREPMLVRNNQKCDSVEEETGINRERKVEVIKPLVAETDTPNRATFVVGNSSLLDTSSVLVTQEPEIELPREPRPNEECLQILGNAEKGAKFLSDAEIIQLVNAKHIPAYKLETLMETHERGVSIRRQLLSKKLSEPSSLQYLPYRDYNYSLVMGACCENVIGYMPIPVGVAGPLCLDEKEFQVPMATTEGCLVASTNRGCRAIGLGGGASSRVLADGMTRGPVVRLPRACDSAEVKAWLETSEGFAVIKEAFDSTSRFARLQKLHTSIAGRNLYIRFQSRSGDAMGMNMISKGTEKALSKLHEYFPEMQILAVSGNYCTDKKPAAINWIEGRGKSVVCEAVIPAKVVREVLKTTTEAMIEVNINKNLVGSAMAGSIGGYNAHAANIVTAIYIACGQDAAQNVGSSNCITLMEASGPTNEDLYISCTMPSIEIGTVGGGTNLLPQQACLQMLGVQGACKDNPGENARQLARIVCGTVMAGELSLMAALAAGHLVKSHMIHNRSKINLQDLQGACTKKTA
Test: HMG-CoA reductase (HMGCR) degradation in HepG2 cells by western blotting
Format: cell-based
Settings: treated for 18 hours, ratio of HMG-CoA reductase to GAPDH, read-out: DC50
DC50 for assorted compounds

# COMPOUND, DC50
rows = [
    ("CN[C@@H](C)C(=O)N[C@H](C(=O)N1CCC[C@@H]1c1nc(C(=O)c2cccc(OCCOCCOCCNC(=O)O[C@H]3C[C@@H](C)C=C4C=C[C@H](C)[C@H](CC[C@@H]5C[C@@H](O[Si](C)(C)C(C)(C)C)CC(=O)O5)[C@H]43)c2)cs1)C1CCCCC1", "> 500 nM"),
    ("C[C@H]1C=C2C=C[C@H](C)[C@H](CC[C@@H](O)C[C@@H](O)CC(=O)O)[C@H]2[C@@H](OC(=O)NCCOCCOCCNc2cccc3c2C(=O)N(C2CCC(=O)NC2=O)C3=O)C1 (stereo partly shown)", "< 50 nM"),
    ("Cc1ncsc1-c1ccc(CNC(=O)[C@@H]2C[C@@H](O)CN2C(=O)[C@@H](NC(=O)C2(F)CC2)C(C)(C)C)c(OCCOCCNC(=O)O[C@H]2C[C@@H](C)C=C3C=C[C@H](C)[C@H](CC[C@@H]4C[C@@H](O[Si](C)(C)C(C)(C)C)CC(=O)O4)[C@H]32)c1", "< 50 nM"),
    ("C[C@H]1C=C2C=C[C@H](C)[C@H](CC[C@@H]3C[C@@H](O)CC(=O)O3)[C@H]2[C@@H](OC(=O)C(C)(C)CCC(=O)NCCOCCOCCOCCOCCOCCOCCNc2cccc3c2C(=O)N(C2CCC(=O)NC2=O)C3=O)C1 (stereo partly shown)", "< 50 nM"),
]

----------
target: HMG-CoA reductase (Homo sapiens); construct: endogenous in cells; host or cells: HepG2 (Korea Cell Line Bank); assay: HMG-CoA reductase (HMGCR) degradation in HepG2 cells by western blotting; type: cell-based; conditions: treated for 18 hours, ratio of HMG-CoA reductase to GAPDH, read-out: DC50

# MOLECULE, SYSTEM_TESTED, DC50
records = [
    ("C[C@H]1C=C2C=C[C@H](C)[C@H](CC[C@@H]3C[C@@H](O[Si](C)(C)C(C)(C)C)CC(=O)O3)[C@H]2[C@@H](OC(=O)NCCCCCNc2cccc3c2C(=O)N(C2CCC(=O)NC2=O)C3=O)C1 (stereo partly shown)", "HMG-CoA reductase (Homo sapiens)", "< 50 nM"),
    ("Cc1ncsc1-c1ccc(CNC(=O)[C@@H]2C[C@@H](O)CN2C(=O)[C@@H](NC(=O)COCCNC(=O)O[C@H]2C[C@@H](C)C=C3C=C[C@H](C)[C@H](CC[C@@H]4C[C@@H](O)CC(=O)O4)[C@H]32)C(C)(C)C)cc1", "HMG-CoA reductase (Homo sapiens)", "50 to 500 nM"),
    ("C[C@H]1C=C2C=C[C@H](C)[C@H](CC[C@@H]3C[C@@H](O[Si](C)(C)C(C)(C)C)CC(=O)O3)[C@H]2[C@@H](OC(=O)NCCOCCOCCOCC(=O)Nc2cccc3c2C(=O)N(C2CCC(=O)NC2=O)C3=O)C1 (stereo partly shown)", "HMG-CoA reductase (Homo sapiens)", "< 50 nM"),
    ("C[C@H]1C=C2C=C[C@H](C)[C@H](CC[C@@H]3C[C@@H](O[Si](C)(C)C(C)(C)C)CC(=O)O3)[C@H]2[C@@H](OC(=O)NCCOCCOCCOCCOCCNc2cccc3c2C(=O)N(C2CCC(=O)NC2=O)C3=O)C1 (stereo partly shown)", "HMG-CoA reductase (Homo sapiens)", "< 50 nM"),
]

----------
Target: HMG-CoA reductase (Homo sapiens)
Construct: endogenous in cells; host or cells: HepG2 (Korea Cell Line Bank)
Sequence (P04035 1-888): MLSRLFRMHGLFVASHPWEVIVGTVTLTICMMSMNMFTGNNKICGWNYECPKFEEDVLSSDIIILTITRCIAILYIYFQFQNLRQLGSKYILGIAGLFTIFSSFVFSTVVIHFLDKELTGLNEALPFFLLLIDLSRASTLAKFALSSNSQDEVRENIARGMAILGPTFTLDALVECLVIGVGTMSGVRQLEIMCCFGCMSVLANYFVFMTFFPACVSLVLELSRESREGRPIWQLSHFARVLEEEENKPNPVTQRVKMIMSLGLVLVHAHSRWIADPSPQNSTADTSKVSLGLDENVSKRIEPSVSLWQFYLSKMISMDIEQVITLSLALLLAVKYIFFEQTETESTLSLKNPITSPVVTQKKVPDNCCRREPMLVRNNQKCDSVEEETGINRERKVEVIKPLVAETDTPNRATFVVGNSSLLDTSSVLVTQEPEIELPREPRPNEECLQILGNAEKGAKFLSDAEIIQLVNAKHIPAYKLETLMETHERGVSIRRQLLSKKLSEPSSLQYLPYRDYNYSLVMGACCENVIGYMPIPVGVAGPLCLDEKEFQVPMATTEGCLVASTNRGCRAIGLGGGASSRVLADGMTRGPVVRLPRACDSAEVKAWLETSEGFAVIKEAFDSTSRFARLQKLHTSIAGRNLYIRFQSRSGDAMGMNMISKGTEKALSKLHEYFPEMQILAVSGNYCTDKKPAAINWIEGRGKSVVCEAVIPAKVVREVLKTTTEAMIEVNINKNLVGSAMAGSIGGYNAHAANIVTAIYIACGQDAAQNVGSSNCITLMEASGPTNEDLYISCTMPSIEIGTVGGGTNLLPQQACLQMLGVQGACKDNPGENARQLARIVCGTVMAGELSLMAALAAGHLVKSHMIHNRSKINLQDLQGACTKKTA
Test: HMG-CoA reductase (HMGCR) degradation in HepG2 cells by western blotting
Format: cell-based
Settings: treated for 18 hours, ratio of HMG-CoA reductase to GAPDH, read-out: DC50
The following compounds are shown together with reported DC50 values.

# COMPOUND, DC50
records = [
    ("C[C@H]1C=C2C=C[C@H](C)[C@H](CC[C@@H]3C[C@@H](O)CC(=O)O3)[C@H]2[C@@H](OC(=O)NCCOCCOCCNc2cccc3nnn(C4CCC(=O)NC4=O)c(=O)c23)C1 (stereo partly shown) [Compound 156]", "< 0.05 µM"),
    ("C[C@H]1C=C2C=C[C@H](C)[C@H](CC[C@@H]3C[C@@H](O)CC(=O)O3)[C@H]2[C@@H](OC(=O)NCCCCCCNc2cccc3c2C(=O)N(C2CCC(=O)NC2=O)C3=O)C1 (stereo partly shown) [Compound 59]", "0.05 to 0.5 µM"),
    ("Cc1ncsc1-c1ccc(CNC(=O)[C@@H]2C[C@@H](O)CN2C(=O)[C@@H](NC(=O)C2(F)CC2)C(C)(C)C)c(OCCCCCCCCCNC(=O)O[C@H]2C[C@@H](C)C=C3C=C[C@H](C)[C@H](CC[C@@H]4C[C@@H](O)CC(=O)O4)[C@H]32)c1 [Compound 166]", "< 0.05 µM"),
    ("Cc1ncsc1-c1ccc(CNC(=O)[C@@H]2C[C@@H](O)CN2C(=O)[C@@H](NC(=O)CCCCCCCCCCNC(=O)O[C@H]2C[C@@H](C)C=C3C=C[C@H](C)[C@H](CC[C@@H]4C[C@@H](O)CC(=O)O4)[C@H]32)C(C)(C)C)cc1 [Compound 160]", "< 0.05 µM"),
]

Data provenance: patent US12479840B2
